# Measurement Notes: recombinant UMI read abundance after kanamycin selection (control-corrected) (log10(CPM+1)); higher = more efficient recombination; extreme values may be limits of the assay; sequences stand for … in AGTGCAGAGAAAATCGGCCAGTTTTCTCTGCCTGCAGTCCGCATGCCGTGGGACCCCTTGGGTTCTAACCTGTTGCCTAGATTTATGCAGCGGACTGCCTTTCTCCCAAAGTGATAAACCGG…AGGTTGGTTTCACT; site = the 11-nt donor;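 also: IS621 bridge recombinase in Escherichia coli cells against a fixed T5 target plasmid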
Readings of recombinant UMI read abundance (log10) for the listed sequences
Lab note: write the figure by itself, no unit.

// solved cases for recombinant UMI read abundance (log10) follow
CGTGGAACATGGACCGGTTTTCCCGGTAATCCGTATTTGTA (site CGTGGAACTTA): 2.24
GAGACGACATGGACCGGTTTTCCCGGTAATCCGTATTTGTC (site GAGACGACTGA): 1.94
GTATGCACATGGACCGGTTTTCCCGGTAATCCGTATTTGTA (site GTATGCTCTTA): 1.19
CCGAAAACATGGACCGGTTTTCCCGGTAATCCGTATTTGCT (site CCGAAAACTAG): 0.973
GATTGGGCATGGACCGGTTTTCCCGGTAATCCGTATTTGAC (site GATTGGTCTGT): 0
CGTGGAACATGGACCGGTTTTCCCGGTAATCCGTATTTGTA (site CGTGGAACTAA): 0.00446

## Task Fill in: recombinant UMI read abundance (log10) of CGTACACCATGGACCGGTTTTCCCGGTAATCCGTATTTGAC (site CGTACACCTGT) is ___
## Result 0

## Task Fill in: recombinant UMI read abundance (log10) of CTCGGCCCATGGACCGGTTTTCCCGGTAATCCGTATTTGTT (site CCCGGCCCTAA) is ___
## Result 0.0244

## Task Fill in: recombinant UMI read abundance (log10) of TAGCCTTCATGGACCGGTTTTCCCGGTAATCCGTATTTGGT (site TCGCCTTCTAC) is ___
## Result 0.0137

###

Readings of recombinant UMI read abundance (log10) for the listed sequences
# Measurement Notes: recombinant UMI read abundance after kanamycin selection (control-corrected) (log10(CPM+1)); higher = more efficient recombination; extreme values may be limits of the assay; sequences stand for … in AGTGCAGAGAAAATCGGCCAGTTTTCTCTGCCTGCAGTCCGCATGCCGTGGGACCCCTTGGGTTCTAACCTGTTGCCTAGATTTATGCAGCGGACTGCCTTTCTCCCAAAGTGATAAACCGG…AGGTTGGTTTCACT; site = the 11-nt donor
Lab note: write the figure by itself, no unit.

// solved cases for recombinant UMI read abundance (log10) follow
CAGTCGACATGGACCGGTTTTCCCGGTAATCCGTATTTGAG (site CAGTCGACTCG): 0.00367
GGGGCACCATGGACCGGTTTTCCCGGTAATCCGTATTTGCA (site GGGTCACCTTG): 0.0044
CGGCCGGCATGGACCGGTTTTCCCGGTAATCCGTATTTGGC (site TGGCCGGCTGC): 0
AAGCACGCATGGACCGGTTTTCCCGGTAATCCGTATTTGGG (site AACCACGCTCC): 0.0266
TGACCGGCATGGACCGGTTTTCCCGGTAATCCGTATTTGGG (site TGACCGGCTCC): 0.00617
GATTGGCCATGGACCGGTTTTCCCGGTAATCCGTATTTGAC (site GATTGGCCTGT): 0

## Task Fill in: recombinant UMI read abundance (log10) of CTGTAAACATGGACCGGTTTTCCCGGTAATCCGTATTTGCA (site CTGGAAACTTG) is ___
## Result 0

## Task Fill in: recombinant UMI read abundance (log10) of ACACCATCATGGACCGGTTTTCCCGGTAATCCGTATTTGCA (site ACAGTATCTTG) is ___
## Result 1.21

## Task Fill in: recombinant UMI read abundance (log10) of AGCCCAGCATGGACCGGTTTTCCCGGTAATCCGTATTTGGG (site AGCCCAGCTCC) is ___
## Result 0.35
